- subjectOfTest: UniProt P41145
- Sequence (P41145 whole entry): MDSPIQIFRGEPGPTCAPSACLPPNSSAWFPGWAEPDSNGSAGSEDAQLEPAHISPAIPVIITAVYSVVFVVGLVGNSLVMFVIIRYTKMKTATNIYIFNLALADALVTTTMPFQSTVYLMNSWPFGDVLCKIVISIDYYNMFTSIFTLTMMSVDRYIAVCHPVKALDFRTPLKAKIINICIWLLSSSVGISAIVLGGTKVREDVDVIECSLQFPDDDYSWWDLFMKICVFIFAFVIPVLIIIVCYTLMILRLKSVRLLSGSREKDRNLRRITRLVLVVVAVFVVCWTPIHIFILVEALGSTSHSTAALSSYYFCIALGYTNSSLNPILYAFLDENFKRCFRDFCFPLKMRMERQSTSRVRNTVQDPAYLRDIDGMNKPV
Lab note: anything with Ki below 0.6 µM is marked met; values at 0.6 µM or higher are marked not met.

// known answers, use as guide
{"molecule": "C=C(C)CN1CCC23c4c5ccc(OC)c4O[C@H]2C(=O)/C(=C/c2ccccc2)C[C@@]3(O)C1C5 (some centres not stated)", "class": "not met"}
{"molecule": "C=C(C)CN1CCC23c4c5ccc(O)c4O[C@H]2C(=O)/C(=C/c2ccccc2)C[C@@]3(O)C1C5 (some centres not stated)", "class": "not met"}
{"molecule": "C=C(C)CN1CCC23c4c5ccc(O)c4O[C@H]2c2oc4ccccc4c2C[C@@]3(O)C1C5 (some centres not stated)", "class": "met"}
{"molecule": "C=C(C)CN1CCC23c4c5ccc(O)c4O[C@H]2c2ncc(-c4ccc(Cl)cc4)cc2C[C@@]3(O)C1C5 (some centres not stated)", "class": "met"}
{"molecule": "C=C(C)CN1CCC23c4c5ccc(O)c4O[C@H]2c2[nH]ncc2C[C@@]3(O)C1C5 (some centres not stated)", "class": "met"}

Field: next molecule
Hello, is Ki of the following molecule strictly smaller than 0.6 µM? C=C(C)CN1CCC23c4c5ccc(OC)c4O[C@H]2c2[nH]c4ccccc4c2C[C@@]3(O)C1C5 (some centres not stated) not met
